The reported numbers originate from patent US9279806B2.

assay: Photophysical properties in solution and aggregate states (AIE effect); format: physicochemical; conditions: AN solution / AN-water mixtures with low water fraction
OBSERVED PROPERTY: Fluorescence quantum yield (ΦF), molecularly dissolved (%)

{"STRUCTURE STRING": "BrCCOc1ccc(C(=C(c2ccc(OCCBr)cc2)c2ccc(OCCBr)cc2)c2ccc(OCCBr)cc2)cc1", "UNITS LABEL": "%", "MEASURED NUMBER": 0.5}

---

test: Solubility; format: physicochemical

{"COMPOUND": "CC[N+](CC)(CC)CCCCOc1ccc(/C(=C(\\c2ccccc2)c2ccc(OCCCC[N+](CC)(CC)CC)cc2)c2ccccc2)cc1.[Br-].[Br-] [TPE-C4N^+]", "Solubility in water": "soluble in water"}
{"COMPOUND": "CC[N+](CC)(CC)CCOc1ccc(/C(=C(\\c2ccccc2)c2ccc(OCC[N+](CC)(CC)CC)cc2)c2ccccc2)cc1.[Br-].[Br-] [TPE-C2N^+]", "Solubility in water": "soluble in water"}
